The reported measurements were obtained from patent US20220387457A1.

Test: Plasma pharmacokinetics of CKLP1 and levcromakalim after topical dosing in hound dogs
Assay type: in vivo, hound dog
Conditions: levcromakalim after topical 10 mM CKLP1 once daily; Day 4

| Molecule | Tlast (min) |
| --- | --- |
| CC1(C)Oc2ccc(C#N)cc2[C@@H](N2CCCC2=O)[C@@H]1O [Levcromakalim, levcromakalim, reference compound] | 480 |

---

Test: Toxicokinetics after escalating intravenous doses of CKLP1 in beagles
Format: in vivo, beagle dog
Settings: male, beagle, dog, in vivo, iv, 0.5 mg/kg

| Structure smiles string | C0 [ng/mL] |
| --- | --- |
| CC1(C)Oc2ccc(C#N)cc2[C@@H](N2CCCC2=O)[C@@H]1OP(=O)(O)O | 3580 |

---

Listing of entries alongside the reported concentration at 23 h.
Assay: Concentration of CKLP1 and levcromakalim in ocular and systemic tissues of hound dogs
Format: in vivo, hound dog
Conditions: hound, dog, kidney; 23 hours after last dose; topical 10 mM CKLP1 12-13 days; read-out: concentration in kidney

| Molecule | concentration at 23 h |
| --- | --- |
| CC1(C)Oc2ccc(C#N)cc2[C@@H](N2CCCC2=O)[C@@H]1OP(=O)(O)O | 2.7 ng/g |
| CC1(C)Oc2ccc(C#N)cc2[C@@H](N2CCCC2=O)[C@@H]1O [Levcromakalim, levcromakalim, reference compound] | 0.8 ng/g |

---

Experiment: Plasma pharmacokinetics, 28-day topical ophthalmic dosing in beagle dogs
Details: female, beagle, dog, in vivo, topical or ocular, […]

| Structure smiles string | Tmax (h) |
| --- | --- |
| CC1(C)Oc2ccc(C#N)cc2[C@@H](N2CCCC2=O)[C@@H]1OP(=O)(O)O | 2 |

---

Experiment: Concentration of CKLP1 and levcromakalim in ocular and systemic tissues of hound dogs
Type: in vivo, hound dog
Details: hound, dog, optic nerve; 23 hours after last dose; topical 10 mM CKLP1 once daily 12-13 days; two animals; read-out: concentration in optic nerve
Measurement name: concentration at 23 h (ng/g)

| Compound | Uom | Qualifier operator | Recorded value |
| --- | --- | --- | --- |
| CC1(C)Oc2ccc(C#N)cc2[C@@H](N2CCCC2=O)[C@@H]1O [Levcromakalim, levcromakalim, reference compound] | ng/g | < | 1 |
| CC1(C)Oc2ccc(C#N)cc2[C@@H](N2CCCC2=O)[C@@H]1OP(=O)(O)O | ng/g | = | 63.8 |

---

Test: Toxicokinetics after escalating intravenous doses of CKLP1 in beagles
Format: in vivo, beagle dog
Settings: male, beagle, dog, in vivo, iv, 3 mg/kg

| Structure smiles string | clearance [L/h/kg] |
| --- | --- |
| CC1(C)Oc2ccc(C#N)cc2[C@@H](N2CCCC2=O)[C@@H]1OP(=O)(O)O | 0.0337 |

---

Test: Plasma pharmacokinetics of CKLP1 and levcromakalim after topical dosing in hound dogs
Type: in vivo, hound dog
Settings: hound, dog, plasma, topical or ocular, 10 mM CKLP1, 50 µL in each of both eyes, CKLP1; topical 10 mM CKLP1 once daily; Day 4; read-out: Tmax (converted)

| Compound | Uom | Tmax |
| --- | --- | --- |
| CC1(C)Oc2ccc(C#N)cc2[C@@H](N2CCCC2=O)[C@@H]1OP(=O)(O)O [CKLP1] | h | 2 |

---

Experiment: Plasma pharmacokinetics, 28-day topical ophthalmic dosing in beagle dogs
Settings: beagle, dog, in vivo, terminal elimination half-life
Listing of entries alongside the reported half-life.
Measurement name: half-life

| Compound | Recorded value |
| --- | --- |
| CC1(C)Oc2ccc(C#N)cc2[C@@H](N2CCCC2=O)[C@@H]1OP(=O)(O)O [CKLP1] | 3 to 6 h |
| CC1(C)Oc2ccc(C#N)cc2[C@@H](N2CCCC2=O)[C@@H]1O [Levcromakalim, levcromakalim, reference compound] | 2 to 5 h |
